Measured EC50 of shedding inhibition accompanies every entry in the list below.
- target system: MICA*004 on HCC1534 cells (human, UniProt Q29983 24-383)
- test description: cell-based or functional assay
Your answer should be a plain number; it is taken to be in µg/mL.

# annotated cases, reported EC50 of shedding inhibition shown
| binder | unit label | EC50 of shedding inhibition |
| --- | --- | --- |
| 9C9.5.6 (antibody, V domains shown, Mouse hybridoma antibody; constant regions differ by assay) VH: QVQLKESGPGLVAPSQSLSITCTVSGFSLNGQGVNWVRQPPGKGLEWLGMIWGDGSTDYNSALKSRLSISKDNSRSQVFLKMNSLQTDDTARYYCARGAHYGKRWYFDVWGAGTTVTVSS VL: DIQMTQTTSSLSASLGDRVTISCSASQNINNYLNWYQQKPHGTVKLLIYYTSSLPSGVPSRFSGSGSGTDYSLTISNLEPEDIASYYCQQYSKLPPTFGGGTKVEIK | µg/mL | 3.18 |
| 1D5 (antibody, V domains shown, Mouse variable domains; constant regions differ by assay (human IgG1 or mouse IgG2a); also called anti-MIC 1D5) VH: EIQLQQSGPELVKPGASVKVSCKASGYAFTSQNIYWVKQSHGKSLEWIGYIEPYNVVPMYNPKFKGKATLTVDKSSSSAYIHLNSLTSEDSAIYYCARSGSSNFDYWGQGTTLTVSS VL: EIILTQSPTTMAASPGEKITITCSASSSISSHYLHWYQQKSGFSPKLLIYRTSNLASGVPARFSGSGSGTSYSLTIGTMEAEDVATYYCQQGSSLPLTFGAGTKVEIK | µg/mL | 0.0435 |

Proceeding to the next binder to report its EC50 of shedding inhibition.
EC50 of shedding inhibition in this record for 6F8.7 (antibody, V domains shown, Mouse hybridoma antibody; constant regions differ by assay) VH: DVQLQGSGPGLVKPSQSLSLTCSVTGYSITNDYYWNWIRQFPGNKLEWMGFISFGGSNNYNPSLKNRISITRDTSKNQFFLKLSSVTTEDTATYYCARYDGRGAWFAYWAQGTLVTVSA VL: DIQMTQSPASLSASVGETVTITCRASGNIHNYLAWYQQKQGKSPQLLVYDAITLADGVPSRFSGSGSGTQYSLKINSLQPEDFGNYYCQHFWSFPLTFGAGTKVEIK : 0.251
